Source: patent US10329282B2

Below are IC50 values recorded for ROCK2 (Homo sapiens (Human)).

- MOLECULE: "CC(C)NC(=O)c1ccc2cc(-c3nccc(Nc4ccc5[nH]ncc5c4)n3)sc2c1 [TDI01106]"
  TARGET_SYSTEM: "ROCK2 (Homo sapiens (Human))"
  IC50, nM: 112
- MOLECULE: "CC(C)NC(=O)C1COc2ccc(-c3nccc(Nc4ccc5[nH]ncc5c4)n3)cc2O1 (stereo not shown) [TDI01103]"
  TARGET_SYSTEM: "ROCK2 (Homo sapiens (Human))"
  IC50, nM: 167
- MOLECULE: "O=C(NC1CC1)c1cc2ccc(-c3nccc(Nc4ccc(-c5cn[nH]c5)cc4)n3)cc2[nH]1 [TDI01324]"
  TARGET_SYSTEM: "ROCK2 (Homo sapiens (Human))"
  IC50, nM: 101
- MOLECULE: "CC(C)NC(=O)c1cc2ccc(-c3nc(Nc4ccc5[nH]ncc5c4)c4cc[nH]c4n3)cc2[nH]1 [TDI01143]"
  TARGET_SYSTEM: "ROCK2 (Homo sapiens (Human))"
  IC50, nM: 72

====

# TARGET_SYSTEM: ROCK2 (Homo sapiens (Human))
# Sequence (O75116 1-553): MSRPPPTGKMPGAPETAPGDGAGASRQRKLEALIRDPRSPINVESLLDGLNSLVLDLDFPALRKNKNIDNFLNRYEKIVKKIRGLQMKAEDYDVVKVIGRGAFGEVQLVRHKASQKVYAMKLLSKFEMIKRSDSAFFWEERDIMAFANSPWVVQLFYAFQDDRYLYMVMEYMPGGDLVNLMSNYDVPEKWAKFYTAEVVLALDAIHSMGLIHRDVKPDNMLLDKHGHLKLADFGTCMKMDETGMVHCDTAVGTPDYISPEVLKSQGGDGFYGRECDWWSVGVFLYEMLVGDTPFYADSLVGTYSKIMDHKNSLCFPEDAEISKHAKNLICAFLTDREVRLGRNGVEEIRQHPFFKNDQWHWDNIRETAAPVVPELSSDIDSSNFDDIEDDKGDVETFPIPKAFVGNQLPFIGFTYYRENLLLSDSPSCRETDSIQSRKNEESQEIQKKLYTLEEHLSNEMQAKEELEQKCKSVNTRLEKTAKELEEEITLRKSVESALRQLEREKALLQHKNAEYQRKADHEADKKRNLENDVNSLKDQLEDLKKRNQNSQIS
pIC50: −log10 of the molar value.

- COMPOUND: "CN(CC(F)(F)F)C(=O)c1cc2ccc(-c3ncc(F)c(Nc4ccc(-c5cn[nH]c5)cc4)n3)cc2[nH]1 [TDI01426]"
  pIC50: 6.44
- COMPOUND: "O=C(NC1CCN(c2ccncc2Cl)CC1)c1cc2ccc(-c3nccc(Nc4ccc(-c5cn[nH]c5)cc4)n3)cc2[nH]1 [TDI01847B]"
  pIC50: 7.59
- COMPOUND: "O=C(c1cc2ccc(-c3nccc(Nc4ccc(-c5cn[nH]c5)cc4)n3)cc2[nH]1)N1CC(C(F)(F)F)C1 [TDI01433]"
  pIC50: 7.89
- COMPOUND: "O=C(Nc1cnccn1)c1cc2ccc(-c3nccc(Nc4ccc5[nH]ncc5c4)n3)cc2[nH]1 [TDI01160]"
  pIC50: 7.27
- COMPOUND: "O=C(Nc1ccncc1Cl)c1cc2ccc(-c3nccc(Nc4ccc5[nH]ncc5c4)n3)cc2[nH]1 [TDI01290]"
  pIC50: 7.34
- COMPOUND: "O=C(c1cc2ccc(-c3nccc(Nc4ccc(-c5cn[nH]c5)cc4)n3)cc2[nH]1)N1CCO[C@@H](CO)C1 [TDI01852]"
  pIC50: 6.32
- COMPOUND: "C[C@@H](NC(=O)c1cc2ccc(-c3nccc(Nc4ccc(-c5cn[nH]c5)cc4)n3)cc2[nH]1)c1ccncc1 [TDI01849B]"
  pIC50: 6.68

====

# TARGET_SYSTEM: ROCK2 (Homo sapiens (Human))
pIC50: −log10 of the molar value.
Threshold check on pIC50: at or above 7 gives TRUE, strictly below gives FALSE.

- SMILES: "O=C(Nc1ccncn1)c1cc2ccc(-c3nccc(Nc4ccc5[nH]ncc5c4)n3)cc2[nH]1"
  TARGET_SYSTEM: "ROCK2 (Homo sapiens (Human))"
  CLASS: "FALSE"
- SMILES: "O=C(NC1CCOCC1)c1cc2ccc(-c3nccc(Nc4ccc5[nH]ncc5c4)n3)cc2[nH]1"
  TARGET_SYSTEM: "ROCK2 (Homo sapiens (Human))"
  CLASS: "TRUE"
- SMILES: "CC(C)NC(=O)c1cc2ccc(-c3nc(Nc4ccc5[nH]ncc5c4)c4ccn(CCN(C)C)c4n3)cc2s1"
  TARGET_SYSTEM: "ROCK2 (Homo sapiens (Human))"
  CLASS: "FALSE"
- SMILES: "CNC(=O)c1cc2ccc(-c3nc(Nc4ccc(-c5cn[nH]c5)cc4)c4sccc4n3)cc2[nH]1"
  TARGET_SYSTEM: "ROCK2 (Homo sapiens (Human))"
  CLASS: "FALSE"
